Test system: hRBCs
Conditions: human erythrocytes, 1 h at 37° C.
Ends that are not written are not given here.

{"chain": "RFGRFLRKIRR [CMAP(l-ll), RFGRFLRKIRR]", "assayed.system": "hRBCs", "Toxicity Haemolysis (hRBCs)": "+/− (>25% dead cells)"}
{"chain": "RFGRWLRKIRRFRPK [CMAP(1-15) (F5→W), RFGRWLRKIRRFRPK]", "assayed.system": "hRBCs", "Toxicity Haemolysis (hRBCs)": "−− (<5% dead cells)"}
{"chain": "RFGRFLRKIRRFRPK [CMAP(1-15), RFGRFLRKIRRFRPK]", "assayed.system": "hRBCs", "Toxicity Haemolysis (hRBCs)": "−− (<5% dead cells)"}
{"chain": "RFGRFLRKIRRFRPKVTITIQGSARFG [CMAP27, reference compound]", "assayed.system": "hRBCs", "Toxicity Haemolysis (hRBCs)": "− (<25% dead cells)"}
{"chain": "RLGRFLRKIRRFRPK [CMAP(1-15) (F2→L), RLGRFLRKIRRFRPK]", "assayed.system": "hRBCs", "Toxicity Haemolysis (hRBCs)": "− (<25% dead cells)"}
{"chain": "RFGRFLRKIRRFR [CMAP(1-13), RFGRFLRKIRRFR]", "assayed.system": "hRBCs", "Toxicity Haemolysis (hRBCs)": "−− (<5% dead cells)"}
{"chain": "RFGRFLRKIR [CMAP(l-l0), RFGRFLRKIR]", "assayed.system": "hRBCs", "Toxicity Haemolysis (hRBCs)": "−− (<5% dead cells)"}
{"chain": "RLGRLLRKIRRLRPK [CMAP(1-15) (3xF→L), RLGRLLRKIRRLRPK]", "assayed.system": "hRBCs", "Toxicity Haemolysis (hRBCs)": "− (<25% dead cells)"}
{"chain": "RFLRKIRRFRPK [CMAP(4-15), RFLRKIRRFRPK]", "assayed.system": "hRBCs", "Toxicity Haemolysis (hRBCs)": "+/− (>25% dead cells)"}
{"chain": "GRFLRKIRRFRPK [CMAP(3-15), GRFLRKIRRFRPK]", "assayed.system": "hRBCs", "Toxicity Haemolysis (hRBCs)": "−− (<5% dead cells)"}
{"chain": "RFGRLLRKIRRFRPK [CMAP(1-15) (F5→L), RFGRLLRKIRRFRPK]", "assayed.system": "hRBCs", "Toxicity Haemolysis (hRBCs)": "− (<25% dead cells)"}
{"chain": "RFGRFLRKIRRF [CMAP(1-12), RFGRFLRKIRRF]", "assayed.system": "hRBCs", "Toxicity Haemolysis (hRBCs)": "−− (<5% dead cells)"}
{"chain": "FGRFLRKIRRFRPK [CMAP(2-15), FGRFLRKIRRFRPK]", "assayed.system": "hRBCs", "Toxicity Haemolysis (hRBCs)": "−− (<5% dead cells)"}
{"chain": "RWGRFLRKIRRFRPK [CMAP(1-15) (F2→W), RWGRFLRKIRRFRPK]", "assayed.system": "hRBCs", "Toxicity Haemolysis (hRBCs)": "−− (<5% dead cells)"}
{"chain": "RWGRWLRKIRRWRPK [CMAP(1-15) (3xF→W), RWGRWLRKIRRWRPK]", "assayed.system": "hRBCs", "Toxicity Haemolysis (hRBCs)": "− (<25% dead cells)"}
{"chain": "FLRKIRRFRPK [CMAP(5-15), FLRKIRRFRPK]", "assayed.system": "hRBCs", "Toxicity Haemolysis (hRBCs)": "− (<25% dead cells)"}
